assay: amyloid nucleation score (Sup35N fusion, yeast selection) (log enrichment); library NNK1; higher = more nucleation; inactive = no reads after selection;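 note: zero at mode of non-aggregating sequences after 7 days selection at 30°C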
Outcome label depends on amyloid nucleation score relative to 0.5: at/above gives yes (1), below gives no (0).

Completed entries (count: 6):
>>> group_label("CCLHSAFSNNARILFMALRS")
"yes (1)"
>>> group_label("TWLYEIHTILMIGGIMRKRG")
"yes (1)"
>>> group_label("VINRSQIRGHRAFSWVGPSL")
"yes (1)"
>>> group_label("VAFRLTIGCVVSVSINVAGV")
"yes (1)"
>>> group_label("SEWDFGDCENFKVSYLVVTQ")
"no (0)"
>>> group_label("LRIFSA")
"yes (1)"

Lookup: API: above_or_equal(metric=amyloid nucleation score, cutoff=0.5) for item WFVNIEGREEWKYHKGCEPK
Found: yes (1)

Lookup: API: above_or_equal(metric=amyloid nucleation score, cutoff=0.5) for item WFMPTSRSKVVYLPSYRCNE
Found: no (0)

Lookup: API: above_or_equal(metric=amyloid nucleation score, cutoff=0.5) for item YFVLKCSC
Found: yes (1)
